target of assay: 5-hydroxytryptamine receptor 2C (Homo sapiens)
Sequence (P28335 whole entry): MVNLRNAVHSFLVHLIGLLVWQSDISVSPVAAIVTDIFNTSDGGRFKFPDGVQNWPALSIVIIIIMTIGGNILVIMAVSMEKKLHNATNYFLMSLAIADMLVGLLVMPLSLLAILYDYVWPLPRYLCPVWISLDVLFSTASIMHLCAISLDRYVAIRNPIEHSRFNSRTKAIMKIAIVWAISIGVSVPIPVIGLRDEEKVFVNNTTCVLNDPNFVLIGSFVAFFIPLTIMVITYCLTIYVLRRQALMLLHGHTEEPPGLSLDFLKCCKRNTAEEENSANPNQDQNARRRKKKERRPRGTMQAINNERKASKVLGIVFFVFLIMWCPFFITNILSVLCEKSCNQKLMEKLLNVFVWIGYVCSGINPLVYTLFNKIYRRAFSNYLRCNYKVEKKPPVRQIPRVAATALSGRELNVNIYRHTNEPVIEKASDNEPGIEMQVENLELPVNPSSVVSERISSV
pKi: −log10 of the molar value.
endpoint label: pKi

Prompt: Identify measured pKi obtained with 5-hydroxytryptamine receptor 2C (Homo sapiens) for CCN1CCCC1CNC(=O)c1cc(S(=O)(=O)CC)c(N)cc1OC (stereo unspecified) .
Response: < 5.00

====

target of assay: 5-hydroxytryptamine receptor 1A (Homo sapiens, UniProt P08908)
Sequence (P08908 whole entry): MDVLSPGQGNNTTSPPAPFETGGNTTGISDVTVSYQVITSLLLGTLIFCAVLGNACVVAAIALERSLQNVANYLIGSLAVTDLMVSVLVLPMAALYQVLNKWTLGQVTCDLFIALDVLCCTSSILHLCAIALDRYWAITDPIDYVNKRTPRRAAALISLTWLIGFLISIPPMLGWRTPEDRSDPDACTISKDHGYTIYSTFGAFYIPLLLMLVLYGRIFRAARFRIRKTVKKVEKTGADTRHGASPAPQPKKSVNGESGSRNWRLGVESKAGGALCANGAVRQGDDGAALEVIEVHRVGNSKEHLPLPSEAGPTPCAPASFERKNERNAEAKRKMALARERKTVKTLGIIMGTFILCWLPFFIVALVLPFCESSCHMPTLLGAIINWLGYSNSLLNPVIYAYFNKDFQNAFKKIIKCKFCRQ
endpoint label: Ki

Prompt: Provide only the value of recorded Ki for CCN1CCCC1CNC(=O)c1cc(S(=O)(=O)CC)c(N)cc1OC (stereo unspecified) [NSC_2159]
Response: > 10 µM

====

target of assay: Beta-2 adrenergic receptor (Homo sapiens, UniProt P07550)
Sequence (P07550 whole entry): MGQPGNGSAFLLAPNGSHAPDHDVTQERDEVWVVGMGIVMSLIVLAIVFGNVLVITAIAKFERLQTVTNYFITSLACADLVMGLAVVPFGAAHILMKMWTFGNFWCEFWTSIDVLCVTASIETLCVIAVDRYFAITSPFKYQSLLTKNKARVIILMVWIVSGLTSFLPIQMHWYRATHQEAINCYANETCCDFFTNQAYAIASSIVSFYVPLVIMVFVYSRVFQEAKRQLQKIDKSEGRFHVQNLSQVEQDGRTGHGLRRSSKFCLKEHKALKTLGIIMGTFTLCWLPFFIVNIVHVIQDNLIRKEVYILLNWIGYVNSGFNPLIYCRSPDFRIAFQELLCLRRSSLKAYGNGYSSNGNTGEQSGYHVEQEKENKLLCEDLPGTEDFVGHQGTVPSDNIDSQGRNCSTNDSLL
endpoint label: Ki

Prompt: Provide only the value of recorded Ki for CCN1CCCC1CNC(=O)c1cc(S(=O)(=O)CC)c(N)cc1OC (stereo unspecified)
Response: > 10 µM

====

target of assay: Prostaglandin E2 receptor EP4 subtype (Homo sapiens)
Sequence (P35408 whole entry): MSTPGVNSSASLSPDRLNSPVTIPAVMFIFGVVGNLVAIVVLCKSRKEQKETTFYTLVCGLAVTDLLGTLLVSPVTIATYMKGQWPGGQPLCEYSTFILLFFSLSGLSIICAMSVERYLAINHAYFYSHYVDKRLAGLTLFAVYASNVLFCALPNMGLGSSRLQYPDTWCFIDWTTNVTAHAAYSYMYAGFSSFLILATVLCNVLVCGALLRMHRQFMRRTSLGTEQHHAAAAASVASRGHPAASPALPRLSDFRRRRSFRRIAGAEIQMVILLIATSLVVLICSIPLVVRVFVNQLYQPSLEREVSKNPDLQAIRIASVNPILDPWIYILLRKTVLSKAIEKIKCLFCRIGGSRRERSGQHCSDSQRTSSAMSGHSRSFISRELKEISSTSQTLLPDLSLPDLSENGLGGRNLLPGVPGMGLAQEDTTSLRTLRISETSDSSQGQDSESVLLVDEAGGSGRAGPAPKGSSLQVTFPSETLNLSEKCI
endpoint label: Ki

Prompt: Provide only the value of recorded Ki for CCN1CCCC1CNC(=O)c1cc(S(=O)(=O)CC)c(N)cc1OC (stereo unspecified)
Response: > 10 µM

====

target of assay: UniProt:P28221
Sequence (P28221 whole entry): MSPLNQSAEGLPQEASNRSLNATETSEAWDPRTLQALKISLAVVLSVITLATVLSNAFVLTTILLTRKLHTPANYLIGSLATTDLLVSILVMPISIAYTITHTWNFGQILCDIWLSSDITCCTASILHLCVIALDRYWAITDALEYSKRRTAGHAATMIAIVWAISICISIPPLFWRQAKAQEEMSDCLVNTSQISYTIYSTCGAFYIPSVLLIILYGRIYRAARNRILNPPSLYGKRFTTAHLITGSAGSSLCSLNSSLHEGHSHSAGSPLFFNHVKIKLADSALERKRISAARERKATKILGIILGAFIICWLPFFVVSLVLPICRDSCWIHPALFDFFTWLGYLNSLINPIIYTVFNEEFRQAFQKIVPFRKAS
endpoint label: Ki (nM)
One number for each entry, in nM.

Prompt: Provide only the value of recorded Ki for CCN1CCCC1CNC(=O)c1cc(S(=O)(=O)CC)c(N)cc1OC (stereo unspecified)
Response: 1340

====

target of assay: UniProtKB Q9H3N8
Sequence (Q9H3N8 whole entry): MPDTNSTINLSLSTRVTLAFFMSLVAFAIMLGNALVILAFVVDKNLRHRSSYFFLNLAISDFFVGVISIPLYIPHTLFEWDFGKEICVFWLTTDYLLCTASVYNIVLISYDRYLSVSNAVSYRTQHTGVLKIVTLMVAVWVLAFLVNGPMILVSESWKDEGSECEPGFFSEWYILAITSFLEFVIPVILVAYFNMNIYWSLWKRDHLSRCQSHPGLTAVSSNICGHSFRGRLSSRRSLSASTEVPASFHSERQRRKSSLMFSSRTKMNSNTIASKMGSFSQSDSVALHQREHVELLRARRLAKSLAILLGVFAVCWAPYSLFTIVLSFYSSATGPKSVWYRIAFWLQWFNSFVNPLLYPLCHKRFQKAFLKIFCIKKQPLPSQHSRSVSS
endpoint label: Ki

Prompt: Provide only the value of recorded Ki for CCN1CCCC1CNC(=O)c1cc(S(=O)(=O)CC)c(N)cc1OC (stereo unspecified) [NSC_2159]
Response: > 10 µM
